These data points were gathered from PubChem BioAssay AID504834.

- Assay Procedure: Primary qHTS for delayed death inhibitors of the malarial parasite plastid, 96 hour incubation
- Test Context: P. falciparum luciferase reporter growth; series mostly up to 28.7 µM
- Excerpt: The goal of this screen is to discover new antimalarial compounds that act by inhibiting the development of the apicoplast in the malarial parasite Plasmodium falciparum. […] We have developed a cell-based assay that measures parasite growth based on the expression of an integrated copy of a firefly luciferase reporter. […] Growth inhibition is detected by a decrease in luciferase activity. […]
About 22,000 (6.9%) of roughly 320,000 compounds were called active. About 27% were inconclusive and are not listed. Calls come from the whole dose curve; as a rule, active = well fitted inhibition curve with a large enough effect; inconclusive = small, poorly fitted or top-dose-only effect, or another doubt; inactive = no such curve, though single readings can be large or run the other way. The sample holds actives, similar compounds and a random draw of the others, so the mix is not that of the screen.
Write down the outcome that applies. Available outcomes: active, inactive

Record excerpt, results attached:
CCC(CC)c1nnc(NC(=O)/C=C/c2ccco2)s1
inactive
C#CCOCCOCCOCCNc1nc(N2CCN(C(=O)[C@H](C(C)C)n3cc(CCO)nn3)CC2)nc(N2CCN(C(=O)[C@H](C(C)C)n3cc(CCO)nn3)CC2)n1
inactive
O=C1Nc2cc(C(=O)N3CCN(c4ccc(F)cc4)CC3)ccc2NC1CSCc1cccc(F)c1 (centres undefined)
inactive

query: Look up the recorded call for "CCOC(=O)N1CCC(c2cc(=O)n(-c3ccccc3)[nH]2)CC1" in this test.
result: inactive

query: "COc1ccc(C(=O)n2nc(C)c(Br)c2C)cc1OC" ?
result: inactive

query: Query "COc1cc(C(=O)N2CCN(C)CC2)cc(OC)c1OC" next
result: inactive

query: Same lookup for "Cc1ccc2c(c1)N(CC(=O)NCCCN1CCCCC1)C(=O)c1cccnc1O2" , please.
result: active

query: Also C#CCOCCOCCOCCNc1nc(N2CCN(C(=O)[C@H](CCC(=O)O)n3cc(C(N)CO)nn3)CC2)nc(N2CCN(C(=O)[C@H](CCCCN)n3cc(C(N)CC(C)C)nn3)CC2)n1 (some centres undefined) , if possible.
result: inactive

query: Moving on to "CCN1C(=NCC(C)C)N[C@@H](CCc2ccccc2)[C@H](C(=O)NCC(C)C)[C@H]1C"
result: inactive

query: // next record "CC1CCN(C(=O)c2cc3nc(C4CC4)cc(C(F)(F)F)n3n2)CC1"
result: inactive

----------
- Assay Procedure: Primary qHTS for delayed death inhibitors of the malarial parasite plastid, 96 hour incubation
- Test Context: P. falciparum luciferase reporter growth; series mostly up to 28.7 µM
- Text: The goal of this screen is to discover new antimalarial compounds that act by inhibiting the development of the apicoplast in the malarial parasite Plasmodium falciparum. […] We have developed a cell-based assay that measures parasite growth based on the expression of an integrated copy of a firefly luciferase reporter. […] Growth inhibition is detected by a decrease in luciferase activity. […]
Screen size: about 320,000 compounds; about 22,000 (6.9%) were called active. Another 27% or so got no clear call; they are omitted. The call rests on the fitted dose curve; in most records, active means well fitted inhibition curve with a large enough effect; inconclusive means small, poorly fitted or top-dose-only effect, or another doubt; inactive means no such curve, though single readings can be large or run the other way. This is one part of a sample in which actives are shown more often than they occur.
# output must be one of active, inactive

Some solved entries appear below for comparison.
O=C(Nc1nc(-c2ccc(-c3ccccc3)cc2)cs1)c1cnccn1
inactive
Cc1ccc(-c2csc(NNC(=O)c3ccccc3)n2)cc1
active
O=C(O)c1ccccc1C(=O)Nc1nc(-c2ccccc2)cs1
inactive
Cn1sc(NC(=O)c2ccccc2)nc1=O
inactive
O=C(Nc1ccc(-c2csc(Nc3cccc(C(F)(F)F)c3)n2)cc1)c1cccc(C(F)(F)F)c1
active

query: Per the records of this test, what outcome belongs to "CCOc1ccccc1Nc1ccc(C(=O)O)cc1[N+](=O)[O-]" ?
result: inactive

query: Input "Cc1nc(NC(=O)c2cccc(Cl)c2)sc1-c1csc(Nc2cccc(Cl)c2)n1"
result: active

query: Also need "O=C(NCc1cccnc1)Nc1ccccc1F" , thanks.
result: inactive

query: Next compound up: O=C(Nc1ccccc1F)C1C2C=CC3(O2)C1C(=O)N(c1cccnc1)C3C(=O)NC1CCCCC1 (stereo unspecified)
result: active

query: Another compound: "CC(=O)c1sc(NC(=O)c2ccc(C)cc2)nc1C"
result: inactive

query: Query "CCNS(=O)(=O)c1ccc(NC(=O)Nc2cccc(C(F)(F)F)c2)cc1" next
result: inactive
